Test system: EKVX NSCLC
Experiment: NCI-60 one-dose screen, 48 h (100 = growth as untreated, 0 = no growth, -100 = all killed)
Conditions: 10 µM
The panel holds about 83,000 compounds, 20% with a hit somewhere; the sample as a whole holds those more often.
quantity: growth (%)
Express your answer in %, writing the number without its unit.

Solved cases (2 shown):
OC(CNc1ccnc2cc(Cl)ccc12)CNC1CCCCC1 (stereo not given)    88.1
COc1ccc2nc3cc(Cl)ccc3c(NCCCNCCO)c2c1    -12.9

*Q* Recorded growth for CNC(=O)c1cn2c3c(c(N4CCN(C)CC4)c(F)cc3c1=O)OC[C@@H]2C , please?
*A* 93.5

*Q* Same question, COc1ccc(N=Nc2cc(OC)c(OC)c(OC)c2)cc1 this time
*A* 77.3

*Q* Next up: Cc1ccc(C(SCC(N)C(=O)O)(c2ccc(C)cc2)c2ccc(C)cc2)cc1 (stereo not given)
*A* -8.36

*Q* Next entry: CCOC(=O)c1sc2ncnc(Nc3ccc(NC(=O)Nc4ccc(Cl)cc4)cc3)c2c1C
*A* 74.4

*Q* Please answer likewise for CN1CCN(CC(=O)Nc2cccc(-n3cc(-c4ccncc4)c(-c4ccc(Cl)c(O)c4)n3)c2)CC1
*A* 63.6

*Q* Let us now turn to COc1ccc(N(C)c2ncnc3occ(C)c23)cc1
*A* 42.1

*Q* Item: CN(C)CCOc1cccc(-c2nc3sccn3c2-c2ccnc(S(C)(=O)=O)n2)c1
*A* 99.5

*Q* Likewise for c1ccc(/C(=N\Nc2ccc3ccccc3n2)c2ccccn2)cc1 ?
*A* 15.1

* * *

// reported growth per item
Tested on: NCI-H522 lung
Experiment: NCI-60 one-dose screen, 48 h (100 = growth as untreated, 0 = no growth, -100 = all killed)
Conditions: 10 µM
About 83,000 compounds went through this panel and 20% of them were active in at least one assay; those are over-represented in the sample as a whole. Calls of active or inactive are those of the source. The calls were made as follows: active = growth percent below 10; inactive = the rest.

Examples with answers:
O=[N+]([O-])c1cc(Cl)cc(Cl)c1O    82.3% (inactive)
COc1ccc(C(=O)CC(CC(=O)c2ccc(OC)cc2)c2c(C)nn(-c3ccccc3)c2Cl)cc1    79.4% (inactive)

Shifting focus to the compound that follows.
*Q* For the compound CC(=O)OC1C=CC(OC(C)=O)O1 (stereo not drawn) , what growth is on record?
*A* 79.2% (inactive)

* * *

Reported growth values for a set of compounds
System: SF-295 CNS
Test: NCI-60 one-dose screen, 48 h (100 = growth as untreated, 0 = no growth, -100 = all killed)
Details: 10 µM
About 83,000 compounds went through this panel and 20% of them were active in at least one assay; those are over-represented in the sample as a whole. Active and inactive are the calls of the source. The calls were made as follows: active = growth percent below 10; inactive = the rest.

Some compounds with known growth results, for comparison:
COc1ccc(-c2cc(-c3ccc(Cl)cc3)nc(SCCCC(=O)NO)n2)cc1    -19.1% (active)
COc1cc(/C=C/c2cc(/C=C/c3ccc(O)c(OC)c3)[nH]c(=O)n2)ccc1O    92.8% (inactive)
O=S(=O)(O)c1cccc(Nc2ccc3ccccc3c2)c1    104% (inactive)
CC[N+](CC)=c1ccc2nc3c(cc(NCc4ccccc4)c4ccccc43)oc-2c1    -98.9% (active)
CC(=O)N[C@H](C(=O)N[C@@H](CCCNC(=N)N)C(=O)N[C@@H](CCCCN)C(=O)N[C@@H](CCCNC(=N)N)C(=O)NC(C(=O)N[C@@H](CC(C)C)C(=O)N[C@@H](CCCNC(=N)N)C(=O)N[C@@]1(C)CCC/C=C\CCC[C@@](C)(C(=O)N[C@@H](CCCNC(=N)N)C(=O)N[C@@H](CCC(=O)O)C(=O)N[C@@H](CC(C)C)C(=O)N[C@H](C(=O)N[C@@H](CCC(=O)O)C(N)=O)C(C)C)NC(=O)[C@H](CCC(N)=O)NC(=O)[C@H](CC(C)C)NC(=O)[C@H](CC(C)C)NC1=O)[C@@H](C)O)C(C)C (stereo partly specified)    -4.34% (active)

API: the following record is the query input.
*Q* What does the record list as growth for CCOc1ccccc1/C=N\N=C\c1ccccc1O ?
*A* 105% (inactive)

These data points were gathered from PubChem BioAssay (NCI).
